- TARGET ENTITY: Factor XIa (Homo sapiens, UniProt P03951)
- Sequence (P03951 388-625 limits assumed): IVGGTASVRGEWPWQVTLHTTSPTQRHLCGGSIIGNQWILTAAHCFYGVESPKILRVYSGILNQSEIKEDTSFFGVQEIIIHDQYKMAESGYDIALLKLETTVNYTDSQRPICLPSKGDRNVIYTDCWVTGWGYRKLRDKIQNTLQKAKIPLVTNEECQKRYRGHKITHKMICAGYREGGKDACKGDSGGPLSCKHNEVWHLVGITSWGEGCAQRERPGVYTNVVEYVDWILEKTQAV
- Sequence (P03951 19-387 partner limits assumed): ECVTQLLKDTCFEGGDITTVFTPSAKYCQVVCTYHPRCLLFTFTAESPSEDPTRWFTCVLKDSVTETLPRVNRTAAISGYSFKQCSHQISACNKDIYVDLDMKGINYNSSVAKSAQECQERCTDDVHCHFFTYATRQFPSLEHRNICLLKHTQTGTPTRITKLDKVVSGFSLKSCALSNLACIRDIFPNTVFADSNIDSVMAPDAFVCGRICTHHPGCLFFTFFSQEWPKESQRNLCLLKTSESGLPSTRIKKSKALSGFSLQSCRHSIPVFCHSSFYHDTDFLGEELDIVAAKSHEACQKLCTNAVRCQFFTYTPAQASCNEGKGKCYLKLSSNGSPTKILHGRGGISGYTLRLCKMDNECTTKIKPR
OBSERVATION TYPE: IC50

IC50 in this record for "NC(=O)c1ccc(NC(=O)[C@@H]2CC[C@H]3CCC(c4c(-n5cnnn5)ccc(Cl)c4F)=CC(=O)N32)cc1F" : > 100 nM

###

- TARGET ENTITY: human plasma kallikrein (Homo sapiens, UniProt P03952)
- Sequence (P03952 391-638 limits assumed): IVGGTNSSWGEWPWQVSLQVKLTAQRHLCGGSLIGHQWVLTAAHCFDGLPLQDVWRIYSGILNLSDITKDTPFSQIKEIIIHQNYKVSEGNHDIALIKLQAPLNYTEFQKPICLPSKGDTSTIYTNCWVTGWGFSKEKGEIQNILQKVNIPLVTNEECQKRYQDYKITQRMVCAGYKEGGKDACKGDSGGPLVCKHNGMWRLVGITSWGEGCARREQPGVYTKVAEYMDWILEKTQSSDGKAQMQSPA
- Sequence (P03952 20-390 partner limits assumed): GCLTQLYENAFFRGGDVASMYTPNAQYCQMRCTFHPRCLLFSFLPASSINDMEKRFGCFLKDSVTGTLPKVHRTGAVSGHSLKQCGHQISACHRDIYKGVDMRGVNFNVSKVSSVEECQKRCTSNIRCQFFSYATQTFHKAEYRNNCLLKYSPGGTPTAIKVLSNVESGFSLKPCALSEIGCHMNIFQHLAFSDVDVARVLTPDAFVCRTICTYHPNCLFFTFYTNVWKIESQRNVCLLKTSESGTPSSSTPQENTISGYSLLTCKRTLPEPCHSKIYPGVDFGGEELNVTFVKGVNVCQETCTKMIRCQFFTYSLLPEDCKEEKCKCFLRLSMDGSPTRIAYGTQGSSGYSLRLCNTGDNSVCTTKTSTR
- TEST PROTOCOL: Kallikrein inhibition assay (FLINT) with quenched AMC peptide substrate
- CONDITION INFO: 30 min preincubation; 50 μM Z-Gly-Pro-Arg-AMC substrate; 2 nM kallikrein; top compound concentration 1 μM
OBSERVATION TYPE: pIC50
Note on units: pIC50 is unitless, being -log10 of a concentration expressed in mol/L.

pIC50 in this record for NC(=O)c1ccc(NC(=O)[C@@H]2CC[C@H]3CCC(c4c(-n5cnnn5)ccc(Cl)c4F)=CC(=O)N32)cc1F [ID No. 20] : 6.10
